Molecular target: human DP2 receptor (Homo sapiens)
Sequence (Q9Y5Y4 whole entry): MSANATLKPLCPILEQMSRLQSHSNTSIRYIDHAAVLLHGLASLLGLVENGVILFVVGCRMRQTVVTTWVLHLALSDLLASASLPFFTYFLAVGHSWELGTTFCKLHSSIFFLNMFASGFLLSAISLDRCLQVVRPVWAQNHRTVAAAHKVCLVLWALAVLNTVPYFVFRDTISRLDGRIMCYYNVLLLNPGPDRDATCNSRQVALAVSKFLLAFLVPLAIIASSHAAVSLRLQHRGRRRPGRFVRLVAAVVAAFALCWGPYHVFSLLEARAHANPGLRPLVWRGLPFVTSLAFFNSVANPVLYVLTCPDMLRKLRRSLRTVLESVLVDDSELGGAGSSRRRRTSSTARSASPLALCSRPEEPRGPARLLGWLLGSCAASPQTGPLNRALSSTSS
Assay: DP2/CRTH2 binding assay (radioligand binding with [3H]PGD2)
Conditions: [3H]PGD2 binding, membranes of HEK293 cells expressing recombinant human DP2; read-out: hDP2
MEASURED QUANTITY: IC50

> print(dat)
                                   compound                  target.under.test    result
1  CCN(Cc1cc(C(F)(F)F)ccc1-c1cncc(CC(=O)O)c1)C(=O)Cc1ccccn1  human DP2 receptor (Homo sapiens)  < 300 nM
2  CCN(Cc1cc(C(F)(F)F)ccc1-c1cc(CC(=O)O)cnc1OC)C(=O)COC  human DP2 receptor (Homo sapiens)  < 300 nM
3  COc1ncc(CC(=O)O)cc1-c1ccc(C(F)(F)F)cc1CN(Cc1ccccc1)C(C)=O  human DP2 receptor (Homo sapiens)  < 300 nM

Please turn your attention to the following entry.
Query: Give the reported IC50 for this compound. CCOC(=O)N(CC)Cc1cc(C(F)(F)F)ccc1-c1cc(CC(=O)O)cnc1OC
Response: < 300 nM
